target: TRPV4 ion channel (Homo sapiens, UniProt Q9HBA0); assay: Calcium mobilization assay in HEK293/TRPV4 cells (GSK1016790A-stimulated)
Sequence (Q9HBA0 whole entry): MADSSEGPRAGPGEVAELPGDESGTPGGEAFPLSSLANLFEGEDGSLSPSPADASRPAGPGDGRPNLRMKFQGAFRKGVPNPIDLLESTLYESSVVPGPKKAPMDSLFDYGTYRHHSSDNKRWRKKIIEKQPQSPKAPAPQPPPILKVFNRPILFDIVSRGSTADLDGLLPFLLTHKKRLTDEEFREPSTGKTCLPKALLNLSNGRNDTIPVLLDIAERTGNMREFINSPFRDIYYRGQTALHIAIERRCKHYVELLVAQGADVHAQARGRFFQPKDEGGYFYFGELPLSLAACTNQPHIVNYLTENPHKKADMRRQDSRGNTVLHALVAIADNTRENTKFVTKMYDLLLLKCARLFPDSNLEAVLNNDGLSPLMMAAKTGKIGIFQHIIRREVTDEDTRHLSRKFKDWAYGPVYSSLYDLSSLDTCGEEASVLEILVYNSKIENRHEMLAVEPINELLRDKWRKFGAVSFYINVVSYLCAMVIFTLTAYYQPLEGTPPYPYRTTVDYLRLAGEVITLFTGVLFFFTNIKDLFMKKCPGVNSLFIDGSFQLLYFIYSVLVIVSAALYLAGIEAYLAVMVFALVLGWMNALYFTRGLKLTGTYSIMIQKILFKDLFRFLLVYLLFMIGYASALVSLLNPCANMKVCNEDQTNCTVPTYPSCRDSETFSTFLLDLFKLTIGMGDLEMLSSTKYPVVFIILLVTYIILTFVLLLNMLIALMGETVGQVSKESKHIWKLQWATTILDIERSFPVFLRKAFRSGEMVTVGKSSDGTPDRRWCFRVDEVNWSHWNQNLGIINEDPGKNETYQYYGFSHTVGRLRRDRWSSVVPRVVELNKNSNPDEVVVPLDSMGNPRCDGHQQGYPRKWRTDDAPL
readout kind: EC50 (nM)

compound="CC(C)C[C@H](NC(=O)c1cc2ccccc2s1)C(=O)N1CCN(C(=O)[C@H](CO)NS(=O)(=O)c2ccc(Cl)cc2Cl)CC1 [GSK1016790A]" readout_kind=EC50 unit_tag=nM reported=9.2
